target: human recombinant 5-HT6 receptor (Homo sapiens, UniProt P50406); experiment: Affinity for 5-HT6 receptor binding sites (competitive radioligand binding, [3H]LSD); details: membranes of HEK-293 with h5-HT6, * = tested as hydrochloride salt
Sequence (P50406 whole entry): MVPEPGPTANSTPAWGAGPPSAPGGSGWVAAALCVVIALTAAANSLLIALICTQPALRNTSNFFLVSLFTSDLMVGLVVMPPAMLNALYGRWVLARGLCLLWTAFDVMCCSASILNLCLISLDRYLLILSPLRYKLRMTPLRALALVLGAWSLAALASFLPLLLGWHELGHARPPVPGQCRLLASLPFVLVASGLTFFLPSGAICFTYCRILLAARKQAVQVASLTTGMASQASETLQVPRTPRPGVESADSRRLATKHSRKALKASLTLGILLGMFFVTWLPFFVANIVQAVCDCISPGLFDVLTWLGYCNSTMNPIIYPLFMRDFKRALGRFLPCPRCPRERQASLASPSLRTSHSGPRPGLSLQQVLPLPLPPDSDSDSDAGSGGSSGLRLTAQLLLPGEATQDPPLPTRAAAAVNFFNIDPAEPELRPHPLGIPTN
pKi: −log10 of the molar value. Where a name gives a salt, the structure may show the parent alone.
# binarize pKi: threshold 7 inclusive, high side T, low side F

# MOLECULE, TARGET_OR_TEST_SYSTEM, CATEGORY
measured = [
    ("CCN(CC)c1nc2c(c(-c3ccc(Cl)cc3)n1)CCNCC2", "human recombinant 5-HT6 receptor (Homo sapiens, UniProt P50406)", "F"),
    ("CCN(CC)c1nc2c(c(-c3ccc(Cl)cc3)n1)CNCCC2 [Example 59, hydrochloride]", "human recombinant 5-HT6 receptor (Homo sapiens, UniProt P50406)", "F"),
    ("CC1CCCN1c1nc2c(c(-c3ccc(F)cc3)n1)CNCC2 (stereo not drawn) [Example 38, hydrochloride]", "human recombinant 5-HT6 receptor (Homo sapiens, UniProt P50406)", "F"),
    ("Cc1ccc(-c2nc(N3CCC(F)CC3)nc3c2CCNCC3)cc1Cl", "human recombinant 5-HT6 receptor (Homo sapiens, UniProt P50406)", "T"),
    ("Cc1ccc(-c2nc(N3CCCC3)nc3c2CN(C)CC3)cc1", "human recombinant 5-HT6 receptor (Homo sapiens, UniProt P50406)", "F"),
]

Check if pKi >= 7 (inclusive). Item: CC1CCCCN1c1nc2c(c(-c3ccc(F)cc3)n1)CCCNC2 (stereo not drawn) F

====

target: human recombinant 5-HT2A receptor (Homo sapiens); experiment: Affinity for 5-HT2A receptor binding sites (competitive radioligand binding, [3H]ketanserin); conditions: membranes of NIH3T3 with h5-HT2A, * = tested as hydrochloride salt
Sequence (P28223 whole entry): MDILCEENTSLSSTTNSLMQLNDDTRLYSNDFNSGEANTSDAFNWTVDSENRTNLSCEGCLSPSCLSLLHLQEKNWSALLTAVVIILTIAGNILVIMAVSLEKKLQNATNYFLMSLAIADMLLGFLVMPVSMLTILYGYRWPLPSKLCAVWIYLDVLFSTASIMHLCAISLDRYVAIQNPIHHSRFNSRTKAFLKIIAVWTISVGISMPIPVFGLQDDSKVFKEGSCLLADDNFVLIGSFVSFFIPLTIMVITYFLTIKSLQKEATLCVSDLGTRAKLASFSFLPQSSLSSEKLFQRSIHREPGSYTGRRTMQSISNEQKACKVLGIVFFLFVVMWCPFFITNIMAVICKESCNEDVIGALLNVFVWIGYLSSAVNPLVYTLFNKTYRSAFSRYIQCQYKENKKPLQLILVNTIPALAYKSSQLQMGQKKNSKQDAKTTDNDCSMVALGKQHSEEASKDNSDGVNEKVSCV
Counter-ions that a name gives are not always drawn.
READOUT_TYPE: Ki (µM)
Only the number, expressed in µM, is required.

Known results for molecules:
# MOLECULE, READING_UNIT, Ki
rows = [
    ("Fc1ccc(-c2nc(N3CCCC3)nc3c2CNCC3)cc1 [Example 41, hydrochloride]", "µM", 0.025),
    ("Cc1ccc(-c2nc(N3CCS(=O)(=O)CC3)nc3c2CCNCC3)cc1Cl", "µM", 1.14),
    ("CCN(CC)c1nc2c(c(-c3ccc(C)cc3)n1)CCNC2", "µM", 0.007),
    ("CCN(CC)c1nc2c(c(-c3ccncc3)n1)CCNCC2 [Example 10, hydrochloride]", "µM", 0.5),
]

In one line, give reported Ki of the entry "C[C@H]1COCCN1c1nc2c(c(-c3cnc4ccccc4c3)n1)CCNCC2" . 0.15

====

biological target: human recombinant 5-HT2C receptor (Homo sapiens); assay: Affinity for 5-HT2C receptor binding sites (competitive radioligand binding, [3H]mesulergine); conditions: membranes of CHO with h5-HT2C, * = tested as hydrochloride salt
Sequence (P28335 33-458): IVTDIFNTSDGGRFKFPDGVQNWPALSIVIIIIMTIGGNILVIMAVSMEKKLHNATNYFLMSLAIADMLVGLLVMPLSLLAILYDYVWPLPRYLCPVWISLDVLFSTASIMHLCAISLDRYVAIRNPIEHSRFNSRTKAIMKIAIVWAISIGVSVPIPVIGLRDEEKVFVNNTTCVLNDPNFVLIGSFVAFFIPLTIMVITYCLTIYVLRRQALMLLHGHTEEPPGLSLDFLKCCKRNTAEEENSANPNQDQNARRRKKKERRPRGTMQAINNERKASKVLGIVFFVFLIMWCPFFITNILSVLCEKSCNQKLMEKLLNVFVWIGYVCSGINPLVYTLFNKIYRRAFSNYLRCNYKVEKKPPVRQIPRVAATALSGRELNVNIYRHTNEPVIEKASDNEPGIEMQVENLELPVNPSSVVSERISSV
Counter-ions that a name gives are not always drawn.
READOUT_TYPE: log10 of Ki (log10 of the value in nM)
Please be aware that the numbers have been log10-transformed from Ki in nM.

Example entries and their recorded answers appear below.
# COMPOUND, log10 of Ki
rows = [
    ("CCN(CC)c1nc2c(c(-c3ccc(C)cc3)n1)CCNC2 [Example 26]", 2.30),
    ("CCN(CC)c1nc2c(c(-c3ccc(C)cc3)n1)CCNCC2 [Example 11, hydrochloride]", 1.80),
    ("C[C@H]1COCCN1c1nc2c(c(-c3cnc4ccccc4c3)n1)CCNCC2 [Example 95]", 2.91),
    ("Fc1ccc(-c2nc(N3CCCCCC3)nc3c2CCNC3)cc1 [Example 32]", 2.04),
    ("Cc1ccc(-c2nc(N3CCCCCC3)nc3c2CCNC3)cc1 [Example 34]", 2.43),
]

In one line, give reported log10 of Ki of the entry Fc1ccc(-c2nc(N3CCCC3)nc3c2CNCC3)cc1 [Example 41, hydrochloride] . 2.97

Fill in reported log10 of Ki for this entry: Fc1ccc(-c2nc(N3CCCCC3)nc3c2CNCCC3)cc1 [Example 20, hydrochloride] 3.80

Provide measured log10 of Ki value, entry: Cc1ccc(-c2nc(NCc3ccccc3)nc3c2CNCC3)cc1 [Example 51] 2.00

Indicate its recorded log10 of Ki; the compound in question is C[C@@H]1CCC[C@H](C)N1c1nc2c(c(-c3ccc(Cl)c(F)c3)n1)CCNCC2 [Example 84] 1.26

====

Target: human recombinant 5-HT2A receptor (Homo sapiens)
Assay: Affinity for 5-HT2A receptor binding sites (competitive radioligand binding, [3H]ketanserin)
Details: membranes of NIH3T3 with h5-HT2A, * = tested as hydrochloride salt
Method: Stock drug solutions (10 mM) were prepared in DMSO (the final assay concentration of DMSO not exceeding 0.4%). Drug dilutions were prepared in assay buffer. […] Receptor binding was performed using the human recombinant 5-HT2A (GB: X57830), 5-HT2B (GB: Z36748) and 5-HT2C (GB: M81778) receptors. The affinity of the compounds for the 3 different human 5-HT2 receptor subtypes was evaluated by competitive radioligand binding assays using [^3H]ketanserin (h5-HT2A) or [^3H]mesulergine (h5-HT2B and h5-HT2C). […]
READOUT_TYPE: Ki (nM)
Output spec: scalar in nM, unitless text.

Solved cases (4 shown):
# COMPOUND, TARGET_OR_TEST_SYSTEM, READING_UNIT, Ki
rows = [
    ("Cc1ccc(-c2nc(N3[C@H](C)CCC[C@@H]3C)nc3c2CCNCC3)cc1F [Example 85]", "human recombinant 5-HT2A receptor (Homo sapiens)", "nM", 45),
    ("CCN(CC)c1nc2c(c(-c3ccc(C)cc3)n1)CCCNC2 [Example 2]", "human recombinant 5-HT2A receptor (Homo sapiens)", "nM", 170),
    ("Cc1ccc(-c2nc(N(C)C)nc3c2CNCC3)cc1 [Example 61]", "human recombinant 5-HT2A receptor (Homo sapiens)", "nM", 420),
    ("Cc1ccc(-c2nc(N3CCOCC3)nc3c2CNCC3)cc1 [Example 49]", "human recombinant 5-HT2A receptor (Homo sapiens)", "nM", 100),
]

Look up and report measured Ki for this entry: COc1ccc(-c2nc(N3[C@H](C)CCC[C@@H]3C)nc3c2CCNCC3)cc1F [Example 89] 180

Please look at this compound and report its Ki: Cc1ccc(-c2nc(N3CCCCC3)nc3c2CNCC3)cc1 [Example 50] 30

Please give measured Ki of the following entry: Cc1ccc(-c2nc(N3CCCC3)nc3c2CN(C)CC3)cc1 [Example 52] 120

Let me know recorded Ki for CCNc1nc2c(c(-c3ccc(C)cc3)n1)CNCC2 [Example 48] , thanks. 2000

State its Ki for this compound: C[C@@H]1COCCN1c1nc2c(c(-c3cnc4ccccc4c3)n1)CCNCC2 [Example 99] 1440

For Cc1ccc(-c2nc(N3CCOC[C@@H]3C)nc3c2CCNCC3)cc1F [Example 97] , write its Ki. 400

Supply reported Ki belonging to this compound: COc1ccc(-c2nc(N3[C@H](C)CCC[C@@H]3C)nc3c2CCNCC3)cc1 [Example 82] 48

Please report the measured Ki for CCN(CC)c1nc2c(c(-c3ccc(OC)cc3)n1)CNCCC2 [Example 17] 900

====

biological target: human recombinant 5-HT2B receptor (Homo sapiens, UniProt P41595); assay: Affinity for 5-HT2B receptor binding sites (competitive radioligand binding, [3H]mesulergine); settings: membranes of CHO with h5-HT2B, * = tested as hydrochloride salt
Sequence (P41595 whole entry): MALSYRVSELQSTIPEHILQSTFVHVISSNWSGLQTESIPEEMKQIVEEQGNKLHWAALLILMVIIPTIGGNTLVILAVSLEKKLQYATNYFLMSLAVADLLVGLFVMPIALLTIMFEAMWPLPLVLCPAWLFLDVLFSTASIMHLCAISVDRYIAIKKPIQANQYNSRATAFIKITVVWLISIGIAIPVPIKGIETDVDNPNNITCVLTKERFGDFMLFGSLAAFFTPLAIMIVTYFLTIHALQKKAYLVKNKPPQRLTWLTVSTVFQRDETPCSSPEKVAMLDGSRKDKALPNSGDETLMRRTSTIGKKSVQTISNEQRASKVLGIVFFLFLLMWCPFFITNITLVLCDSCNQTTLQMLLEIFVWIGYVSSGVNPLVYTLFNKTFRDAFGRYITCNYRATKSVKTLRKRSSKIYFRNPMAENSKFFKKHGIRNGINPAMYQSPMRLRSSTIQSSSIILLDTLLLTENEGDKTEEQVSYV
Structures can show the parent of a compound that is named as a salt.
READOUT_TYPE: pKi
Lab note — pKi values are minus log10 of concentrations in M.

# example entries with known answers
# MOLECULE, READOUT_TYPE, OBSERVED_VALUE
records = [
    ("COc1ccc(-c2nc(N3[C@H](C)CCC[C@@H]3C)nc3c2CCNCC3)cc1F [Example 89]", "pKi", 8.52),
    ("Cc1ccc(-c2nc(N3CCC(F)CC3)nc3c2CCNCC3)cc1 [Example 69]", "pKi", 8.30),
    ("C[C@@H]1CCC[C@H](C)N1c1nc2c(c(-c3ccc(Cl)c(Cl)c3)n1)CCNCC2 [Example 73]", "pKi", 8.15),
    ("CC(C)N(c1nc2c(c(-c3ccc(F)cc3)n1)CNCC2)C(C)C [Example 43, hydrochloride]", "pKi", 7.00),
    ("CC1CCCN1c1nc2c(c(-c3ccc(Cl)cc3)n1)CCNCC2 (stereo not drawn) [Example 54]", "pKi", 8.30),
]

For human recombinant 5-HT2B receptor (Homo sapiens, UniProt P41595), give pKi of the listed molecule: CC(C)c1ccc(-c2nc(N3CCS(=O)(=O)CC3)nc3c2CCNCC3)cc1 [Example 101] 6.19

GET pKi | system: human recombinant 5-HT2B receptor (Homo sapiens, UniProt P41595) | item: Cc1ccc(-c2nc(N3CCCC3)nc3c2CN(C)CC3)cc1 [Example 52] 6.30

Specify the recorded pKi for Cc1ccc(-c2nc(N3[C@H](C)CCC[C@@H]3C)nc3c2CCNCC3)cc1F [Example 85] , system: human recombinant 5-HT2B receptor (Homo sapiens, UniProt P41595). 8.70

Give pKi only, for CCN(CC)c1nc2c(c(-c3ccc(C#N)cc3)n1)CCCNC2 [Example 4] , using human recombinant 5-HT2B receptor (Homo sapiens, UniProt P41595) data. 7.00

Supply pKi measured with human recombinant 5-HT2B receptor (Homo sapiens, UniProt P41595) for CCN(CC)c1nc2c(c(-c3ccc(OC)cc3)n1)CCN(Cc1ccccc1)C2 [Example 27] . 6.18

Give pKi; test system human recombinant 5-HT2B receptor (Homo sapiens, UniProt P41595); molecule Cc1ccc(-c2nc(N3CCCCC3)nc3c2CNCCC3)cc1 [Example 19] 6.00

Provide the reported pKi (system: human recombinant 5-HT2B receptor (Homo sapiens, UniProt P41595)) for CC1CCCN1c1nc2c(c(-c3ccc(Cl)cc3)n1)CNCCC2 (stereo not drawn) [Example 53] 5.92

State, for human recombinant 5-HT2B receptor (Homo sapiens, UniProt P41595), measured pKi of the molecule listed here: Cc1ccc(-c2nc(N3CCOC[C@@H]3C)nc3c2CCNCC3)cc1Cl [Example 93] 7.74

Quote human recombinant 5-HT2B receptor (Homo sapiens, UniProt P41595) pKi for entry Cc1ccc(-c2nc(N3CCS(=O)(=O)CC3)nc3c2CCNCC3)cc1Cl [Example 92] . 6.02

Provide pKi, recorded with human recombinant 5-HT2B receptor (Homo sapiens, UniProt P41595), of CCN(CC)c1nc2c(c(-c3ccc(Cl)cc3)n1)CNCC2 [Example 46, hydrochloride] 6.70
